Attribute: protein stability index
B1: ETS1 (parent)
chain: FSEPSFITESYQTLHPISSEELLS

variants of: B1; experiment: protein stability index of a GFP-peptide fusion (GPS, HEK-293T) (PSI 1-6); higher = more stable; settings: c terminus: a fixed tail appended;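 note: lentivirally expressed fusions sorted by FACS into six bins by GFP to DsRed ratio, PSI derived from sequencing read proportions per bin multiplied by bin number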
Please reply with the value in numeric form only.

Reference set, count: 4
>>> measured_value("E21G")
1.91
>>> measured_value("E9I")
2.57
>>> measured_value("P4E")
3.19
>>> measured_value("S10F")
1.7

Ask | protein stability index for "T8G" ?
Reply | 2.05

Ask | I have this variant here, "E20I" , and I need its recorded protein stability index.
Reply | 1.78

Ask | Form field: reported protein stability index of "E9N"
Reply | 1.62

Ask | Param item = "E9T" ; retrieve measured protein stability index.
Reply | 1.94

Ask | Given "E20D" , state its recorded protein stability index.
Reply | 1.63

Ask | protein stability index lookup needed for "H15W" , thanks.
Reply | 1.67

Ask | Find the recorded protein stability index belonging to "P16L" and report it.
Reply | 3.29
